We begin with a simple list: items and their reported Kd.
Target: Mitogen-activated protein kinase 15 (Homo sapiens, UniProt Q8TD08); also: in the data inactive means no Kd found up to 30 µM
Sequence (Q8TD08 whole entry): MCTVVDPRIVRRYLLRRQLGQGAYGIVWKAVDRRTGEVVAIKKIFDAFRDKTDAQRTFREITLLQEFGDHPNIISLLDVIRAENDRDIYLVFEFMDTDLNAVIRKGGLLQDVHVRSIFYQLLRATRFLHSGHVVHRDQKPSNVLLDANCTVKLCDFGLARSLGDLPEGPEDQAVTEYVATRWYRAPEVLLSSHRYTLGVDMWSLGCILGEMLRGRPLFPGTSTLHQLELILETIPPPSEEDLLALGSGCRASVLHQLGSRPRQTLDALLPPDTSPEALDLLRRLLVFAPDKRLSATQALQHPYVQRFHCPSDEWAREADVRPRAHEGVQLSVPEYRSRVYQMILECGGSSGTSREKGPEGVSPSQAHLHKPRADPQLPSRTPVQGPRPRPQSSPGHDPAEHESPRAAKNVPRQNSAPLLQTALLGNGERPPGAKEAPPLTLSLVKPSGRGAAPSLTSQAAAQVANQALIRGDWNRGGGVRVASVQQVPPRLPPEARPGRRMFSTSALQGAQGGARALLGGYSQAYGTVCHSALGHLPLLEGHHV
Activity calls are given as the source filed them.

{"columns": ["compound", "measure-name", "measured-result"],
 "data": [
  ["COc1cc(Nc2ncc3c(n2)-c2ccc(Cl)cc2C(c2c(F)cccc2OC)=NC3)ccc1C(=O)O", "Kd", "> 30 µM (inactive)"],
  ["Nc1ncnc2c1c(-c1cccc(OCc3ccccc3)c1)cn2[C@H]1C[C@@H](CN2CCC2)C1", "Kd", "> 30 µM (inactive)"],
  ["C=CC(=O)N1CCC[C@H](n2c(=O)n(-c3ccc(Oc4ccccc4)cc3)c3c(N)ncnc32)C1", "Kd", "> 30 µM (inactive)"]
]}

Exercise: Determine reported Kd for CC(C)c1cc(CNc2nc(Nc3cc(C4CC4)[nH]n3)cc(N3CCN(C)CC3)n2)on1 ; test system: Mitogen-activated protein kinase 15 (Homo sapiens, UniProt Q8TD08). Also: in the data inactive means no Kd found up to 30 µM.
Key: > 30 µM (inactive)

Exercise: Provide Kd, tested on Mitogen-activated protein kinase 15 (Homo sapiens, UniProt Q8TD08), for Cn1ncc(Cl)c1-c1cc(C(=O)N[C@H](CN)Cc2ccc(F)c(F)c2)oc1Cl . Also: in the data inactive means no Kd found up to 30 µM.
Key: > 30 µM (inactive)

Exercise: Name the recorded Kd of O=C(Nc1c[nH]nc1-c1nc2cc(CN3CCOCC3)ccc2[nH]1)NC1CC1 , assay system Mitogen-activated protein kinase 15 (Homo sapiens, UniProt Q8TD08). Also: in the data inactive means no Kd found up to 30 µM.
Key: > 30 µM (inactive)
